# Tested on: bombesin receptor
# ASSAY COMMENT: competitive binding assay, 125I-Bombesin, rat brain membranes
Square brackets hold non-standard residues; d marks the D form. Ends that are not written are not given here.

{"columns": ["SUBSTANCE", "binding to bombesin receptor, in words"],
 "data": [
  ["D-Phe-Gln-Trp-Cys-Ala-Val-Gly-His-Leu-Leu-NH2 ([dF]QWCAVGHLL-NH2; also: rhenium complex (oxorhenium(V) N3S1 chelate via Cys)) [8-7]", "least activity"],
  ["D-Phe-Gln-Trp-Ala-Cys-Gly-His-Leu-Leu-NH2 ([dF]QWACGHLL-NH2; also: oxorhenium(V) N3S1 tetradentate complex via Cys) [9-5]", "least activity"]
]}

----------
# Test system: bombesin receptor
# ASSAY COMMENT: competitive binding assay, 125I-Bombesin, rat brain membranes
Square brackets hold non-standard residues; d marks the D form. Ends that are not written are not given here.
EXPERIMENTAL READOUT: binding to bombesin receptor, in words

{"columns": ["SUBSTANCE", "EXPERIMENTAL READOUT", "MEASURED VALUE"],
 "data": [
  ["D-Phe-Gln-Cys-Ala-Val-Gly-His-Leu-Leu-NH2 ([dF]QCAVGHLL-NH2; also: oxorhenium(V) N3S1 tetradentate complex via Cys) [9-7]", "binding to bombesin receptor, in words", "least activity"],
  ["D-Phe-Gln-Trp-Ala-Cys-Val-Gly-His-Leu-Leu-NH2 ([dF]QWACVGHLL-NH2; also: oxorhenium(V) N3S1 chelate via Cys (Re(V)=O)) [8-6]", "binding to bombesin receptor, in words", "least activity"]
]}

----------
# EXPERIMENTAL SYSTEM: hMC4-R (Homo sapiens)
# Construct: expressed in transfected cells
# Sequence (P32245 whole entry): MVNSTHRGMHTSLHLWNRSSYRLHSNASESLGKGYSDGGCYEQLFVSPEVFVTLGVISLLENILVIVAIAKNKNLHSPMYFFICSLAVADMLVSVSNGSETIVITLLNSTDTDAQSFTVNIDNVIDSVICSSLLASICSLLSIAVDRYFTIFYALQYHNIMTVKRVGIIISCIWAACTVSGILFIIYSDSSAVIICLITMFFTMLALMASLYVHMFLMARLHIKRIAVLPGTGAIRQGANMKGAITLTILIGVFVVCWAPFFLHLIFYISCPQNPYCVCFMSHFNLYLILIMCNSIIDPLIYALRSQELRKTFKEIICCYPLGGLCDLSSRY
# ASSAY COMMENT: competitive inhibition binding assay, 125I-NDP-alpha-MSH, hMC4-R membranes
# CONDITION CONTEXT: 1 μM test peptide; 0.4 nM 125I-NDP-alpha-MSH; hMC4-R membranes
Square brackets hold non-standard residues; d marks the D form. Ends that are not written are not given here. Nle = CCCC[C@H](N)C(=O)O
Form field: % Inhibition at 1 μM at Melanocortin Receptor 4 (one value per entry).
EXPERIMENTAL READOUT: % Inhibition at 1 μM at Melanocortin Receptor 4

{"columns": ["SUBSTANCE", "MEASURED VALUE"],
 "data": [
  ["Ac-Ser-Tyr-Ser-Nle-Glu-His-Phe-Arg-Trp-Gly-Lys-D-Cys-Pro-Val-NH2 (Ac-SYS[Nle]EHFRWGK[dC]PV-NH2; not fully specified (bridges); printed as Ac-Ser-Tyr-Ser-Nle-Glu-His-Phe-Arg-Trp-Gly-Lys-D-Cys-Pro-Val-NH2; numbers in words are those of the source; also: oxorhenium(V) N3S1 chelate (Re(V)=O)) [2-3]", "25%"],
  ["Ac-Ser-Tyr-Ser-Nle-Cys-Glu-His-Phe-Arg-Trp-Gly-Lys-Pro-Val-NH2 (Ac-SYS[Nle]CEHFRWGKPV-NH2; not fully specified (bridges); printed as Ac-Ser-Tyr-Ser-Nle-Cys-Glu-His-Phe-Arg-Trp-Gly-Lys-Pro-Val-NH2; numbers in words are those of the source; also: oxorhenium(V) N3S1 chelate (Re(V)=O)) [1-10]", "7%"],
  ["Tyr-Val-Nle-Gly-His-D-Phe-Arg-Trp-Asp-Arg-Phe-Cys-NH2 (FRWDRFC; Tyr-Val-Nle-Gly-His N-term; D-residue; amide; printed: Phe-Arg-Trp-Asp-Arg-Phe-Cys-) [3-1]", "98%"],
  ["Ac-Ser-Tyr-Cys-Ser-Nle-Glu-His-Phe-Arg-Trp-Gly-Lys-Pro-Val-NH2 (chain 1 Ac-SYCS[Nle]; chain 2 EHFRWGKPV-NH2; not fully specified (bridges); printed as Ac-Ser-Tyr-Cys-Ser-Nle-Glu-His-Phe-Arg-Trp-Gly-Lys-Pro-Val-NH2; also: oxorhenium(V) N3S1 chelate (Re(V)=O)) [1-12]", "26%"],
  ["Ac-Ser-Tyr-Ser-Nle-Glu-His-Phe-Arg-Trp-Gly-Lys-Cys-Pro-Val-NH2 (Ac-SYS[Nle]EHFRWGKCPV-NH2; not fully specified (bridges); printed as Ac-Ser-Tyr-Ser-Nle-Glu-His-Phe-Arg-Trp-Gly-Lys-Cys-Pro-Val-NH2; numbers in words are those of the source; also: oxorhenium(V) N3S1 chelate (Re(V)=O)) [1-3]", "0%"],
  ["Tyr-Val-Nle-Gly-His-D-Phe-Arg-Trp-Asp-Cys-Phe-NH2 (YV[Nle]GH[dF]RWDCF-NH2; numbers in words are those of the source; also: oxorhenium(V) N3S1 chelate complex (Re=O)) [5-2]", "58%"]
]}
